# Tested system: human OX2 receptor (Homo sapiens, UniProt O43614)
# Construct: expressed in transfected cells
# Test method notes: Measurement of orexin type 2 receptor agonist activity (calcium fluorescence, Fluo-4 AM, FDSS)
# Assay type: cell-based
# Assay setup: compound at 3 μM; CHO cells forcibly expressing human OX2 receptor; DMSO = 0%, 10 nM orexin A (human) = 100%
Give measured OX2R agonist activity (3 μM, %) for each item. Keep answers brief.
Answers are plain numbers, in %.

Use the examples below as a reference point.
{"Compound": "COCS(=O)(=O)N[C@@H]1CN(C2=NO[C@H](c3ncc(C)cc3-c3c(F)cc(F)cc3F)C2)C[C@@H]1F [Example 91]", "Tested system": "human OX2 receptor (Homo sapiens, UniProt O43614)", "OX2R agonist activity (3 μM, %)": 98}
{"Compound": "CCS(=O)(=O)N[C@@H]1CN(C2=NO[C@H](c3ncc(C)cc3-c3c(F)cc(F)cc3F)C2)C[C@@H]1F [Example 92]", "Tested system": "human OX2 receptor (Homo sapiens, UniProt O43614)", "OX2R agonist activity (3 μM, %)": 92}
{"Compound": "CS(=O)(=O)N[C@@H]1CN(C2=NOC(c3ccc(F)cc3-c3c(F)cccc3F)C2)CC1(F)F (stereo partly shown) [Example 111]", "Tested system": "human OX2 receptor (Homo sapiens, UniProt O43614)", "OX2R agonist activity (3 μM, %)": 102}

We next turn to a different compound, shown below.
Look up OX2R agonist activity (3 μM, %) for this compound: CS(=O)(=O)N[C@@H]1CN(C2=NOC(CF)(c3ncc(F)cc3-c3c(F)cccc3F)C2)C[C@@H]1F (stereo partly shown) [Example 116]
100

====

Give measured OX2R agonist activity (3 μM, %) for each item. Keep answers brief.
# Tested system: human OX2 receptor (Homo sapiens)
# Construct: expressed in transfected cells
# Test method notes: Measurement of orexin type 2 receptor agonist activity (calcium fluorescence, Fluo-4 AM, FDSS)
# Assay type: cell-based
# Assay setup: compound at 3 μM; CHO cells forcibly expressing human OX2 receptor; DMSO = 0%, 10 nM orexin A (human) = 100%
Numbers only, in %.

{"Compound": "CS(=O)(=O)N[C@@H]1CN(C2=NOC(c3ncc(Cl)cc3-c3c(F)cc(F)cc3F)C2)C[C@@H]1F (some centres unmarked) [Example 84]", "Value units": "%", "OX2R agonist activity (3 μM, %)": 97}
{"Compound": "COCC1(NS(C)(=O)=O)CCN(C2=NO[C@H](c3ncc(C)cc3-c3c(F)cccc3F)C2)C1 (some centres unmarked) [Example 73]", "Value units": "%", "OX2R agonist activity (3 μM, %)": 102}
{"Compound": "Cc1cnc(C2(C)CC(N3C[C@@H](NS(C)(=O)=O)C(F)(F)C3)=NO2)c(-c2c(F)cccc2F)c1 (some centres unmarked) [Example 76]", "Value units": "%", "OX2R agonist activity (3 μM, %)": 108}

# map each compound to its OX2R agonist activity (3 μM, %)
1. Cc1cnc([C@@H]2CC(N3CC[C@H](NS(=O)(=O)C4(F)CC4)C3)=NO2)c(-c2c(F)cccc2F)c1 [Example 30]
2. CS(=O)(=O)N[C@@H]1CN(C2=NOC(c3c(F)cc(Cl)cc3-c3ncc(F)cc3F)C2)CC1(F)F (some centres unmarked) [Example 171]
3. Cc1cnc(C2(CO)CC(N3C[C@@H](NS(C)(=O)=O)C(F)(F)C3)=NO2)c(-c2c(F)cc(F)cc2F)c1 (some centres unmarked) [Example 16]
4. Cc1cnc(C2CC(N3CC[C@@H](NS(C)(=O)=O)C(F)(F)CC3)=NO2)c(-c2c(F)cccc2F)c1 (some centres unmarked) [Example 28]

104
109
99
93

====

# Tested system: human OX2 receptor (Homo sapiens)
# Construct: expressed in transfected cells
# Test method notes: Measurement of orexin type 2 receptor agonist activity (calcium fluorescence, Fluo-4 AM, FDSS)
# Assay type: cell-based
# Assay setup: compound at 3 μM; CHO cells forcibly expressing human OX2 receptor; DMSO = 0%, 10 nM orexin A (human) = 100%
Assay endpoint: OX2R agonist activity (3 μM, %)
One number for each entry, in %.

{"Molecule": "CCS(=O)(=O)N[C@@H]1CN(C2=NOC(c3ncc(F)cc3-c3c(F)cc(F)cc3F)C2)CC1(F)F (stereo partly shown) [Example 34]", "Recorded result": 105}

# map each molecule to its OX2R agonist activity (3 μM, %)
1. Cc1cnc([C@@H]2CC(N3C[C@@H](C)[C@H](NS(C)(=O)=O)C3)=NO2)c(-c2c(F)cc(F)cc2F)c1 [Example 63]
2. Cc1cnc([C@@H]2CC(O[C@H]3C[C@H](NS(C)(=O)=O)C3)=NO2)c(-c2c(F)cc(F)cc2F)c1 [Example 74]
3. CS(=O)(=O)N[C@@H]1CN(C2=NOC(CO)(c3ncc(C(F)F)cc3-c3c(F)cccc3F)C2)CC1(F)F (stereo partly shown) [Example 135]

101
58
115

# map each molecule to its OX2R agonist activity (3 μM, %)
1. Cc1cnc([C@@H]2CC(N3C[C@H](F)[C@H](NS(=O)(=O)N(C)C)C3)=NO2)c(-c2c(F)cccc2F)c1 [Example 79]
2. Cc1cnc([C@@H]2CC(N3C[C@H](F)[C@H](NS(=O)(=O)N(C)C)C3)=NO2)c(-c2c(F)cc(F)cc2F)c1 [Example 83]

[100, 103]

Look up OX2R agonist activity (3 μM, %) for this molecule: O=S(=O)(CF)N[C@@H]1CN(C2=NO[C@](CF)(c3ncc(F)cc3-c3c(F)cccc3F)C2)C[C@@H]1F [Example 162]
103

====

# Test system: cynomolgus monkeys
# Test method notes: Evaluation of wake-promoting effects in cynomolgus monkeys (EEG, EMG, locomotor activity)
# Assay type: in vivo, cynomolgus monkey
# Assay setup: 3 mg/kg p.o. at zeitgeber time 12, male cynomolgus monkeys, time spent in wakefulness for 4 hours after administration
Assay endpoint: Wakefulness time (% of vehicle treatment) (Mean, n = 2)

Use the examples below as a reference point.
{"Structure smiles": "O=S(=O)(CF)N[C@@H]1CN(C2=NO[C@](CF)(c3ncc(F)cc3-c3c(F)cccc3F)C2)CC1(F)F", "Recorded result": "282.21 % of vehicle treatment"}
{"Structure smiles": "C[C@@]1(c2ncc(F)cc2-c2c(F)cccc2F)CC(N2C[C@@H](NS(C)(=O)=O)C(F)(F)C2)=NO1", "Recorded result": "716.25 % of vehicle treatment"}
{"Structure smiles": "Cc1cnc([C@@H]2CC(N3C[C@@H](NS(C)(=O)=O)C(F)(F)C3)=NO2)c(-c2c(F)cc(F)cc2F)c1", "Recorded result": "638.80 % of vehicle treatment"}

We next turn to a different molecule, shown below.
Look up Wakefulness time (% of vehicle treatment) (Mean, n = 2) for this molecule: CS(=O)(=O)N[C@@H]1CN(C2=NO[C@](CF)(c3ncc(F)cc3-c3c(F)cccc3F)C2)CC1(F)F
558.37 % of vehicle treatment

====

# Tested system: human OX2 receptor (Homo sapiens)
# Construct: expressed in transfected cells
# Sequence (O43614 1-444): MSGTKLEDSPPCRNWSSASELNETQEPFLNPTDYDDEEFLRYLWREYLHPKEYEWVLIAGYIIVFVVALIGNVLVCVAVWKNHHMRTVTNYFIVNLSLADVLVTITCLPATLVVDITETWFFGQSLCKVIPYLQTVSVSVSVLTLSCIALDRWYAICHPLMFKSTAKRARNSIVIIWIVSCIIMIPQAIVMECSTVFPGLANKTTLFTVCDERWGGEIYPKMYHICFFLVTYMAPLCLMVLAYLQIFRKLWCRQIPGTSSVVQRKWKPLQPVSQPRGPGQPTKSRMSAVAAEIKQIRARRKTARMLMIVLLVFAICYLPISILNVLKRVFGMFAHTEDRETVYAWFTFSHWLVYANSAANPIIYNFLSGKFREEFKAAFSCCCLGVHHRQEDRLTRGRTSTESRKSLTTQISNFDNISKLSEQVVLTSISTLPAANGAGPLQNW
# Test method notes: Measurement of orexin type 2 receptor agonist activity (calcium fluorescence, Fluo-4 AM, FDSS)
# Assay type: cell-based
# Assay setup: compound at 3 μM; CHO cells forcibly expressing human OX2 receptor; DMSO = 0%, 10 nM orexin A (human) = 100%
Assay endpoint: OX2R agonist activity (3 μM, %)

{"Compound": "O=S(=O)(CF)N[C@@H]1CN(C2=NOC(c3c(F)ccc(F)c3-c3c(F)cccc3F)C2)CC1(F)F (stereo partly shown) [Example 173]", "Assay endpoint": "OX2R agonist activity (3 μM, %)", "Recorded result": "100%"}
{"Compound": "CCS(=O)(=O)N[C@@H]1CN(C2=NOC(c3ncc(C)cc3-c3c(F)cc(F)cc3F)(C(F)F)C2)CC1(F)F (stereo partly shown) [Example 13]", "Assay endpoint": "OX2R agonist activity (3 μM, %)", "Recorded result": "107%"}
{"Compound": "O=S(=O)(CF)N[C@@H]1CN(C2=NOC(c3ncc(Cl)cc3-c3c(F)cccc3F)C2)CC1(F)F (stereo partly shown) [Example 148]", "Assay endpoint": "OX2R agonist activity (3 μM, %)", "Recorded result": "98%"}

We next turn to a different compound, shown below.
Notebook: pull reported OX2R agonist activity (3 μM, %) for human OX2 receptor (Homo sapiens), entry Cc1cc(F)c(C2CC(N3C[C@@H](NS(C)(=O)=O)C(F)(F)C3)=NO2)c(-c2c(F)cc(F)cc2F)c1 (stereo partly shown) [Example 145]
105%
